Sourced from patent US20220177587A1

- measured on: CD28 (Homo sapiens, UniProt P10747)
- experiment: Flow binding to Jurkat/IL2 reporter cells (CD28)
- Parameters: host or cells: Jurkat cells expressing an IL-2-luciferase reporter
- experimental context: Table E19; Jurkats (CD28); 33.3 nM
measurement kind: CD28 MFI at 33.3 nM

molecule="E35D/M47V/V68M/L85Q/K89N (protein) VIHVTKEVKEVATLSCGHNVSVEELAQTRIYWQKDKKMVLTMMSGDVNIWPEYKNRTIFDITNNLSIMILALRPSDEGTYECVVQKYENDAFKREHLAEVTLSVKAD" measurement_kind="CD28 MFI at 33.3 nM" endpoint_value=246

Report CD28 MFI at 33.3 nM for K89N (protein) VIHVTKEVKEVATLSCGHNVSVEELAQTRIYWQKEKKMVLTMMSGDMNIWPEYKNRTIFDITNNLSIVILALRPSDEGTYECVVLKYENDAFKREHLAEVTLSVKAD
56.3

Report CD28 MFI at 33.3 nM for E35D/D46V/M47V/N48K/V68M (protein) VIHVTKEVKEVATLSCGHNVSVEELAQTRIYWQKDKKMVLTMMSGVVKIWPEYKNRTIFDITNNLSIMILALRPSDEGTYECVVLKYEKDAFKREHLAEVTLSVKAD
1085

Report CD28 MFI at 33.3 nM for E35D/V68M/L85Q (protein) VIHVTKEVKEVATLSCGHNVSVEELAQTRIYWQKDKKMVLTMMSGDMNIWPEYKNRTIFDITNNLSIMILALRPSDEGTYECVVQKYEKDAFKREHLAEVTLSVKAD
76.2
